Tested on: SK-BR-3
protocol.text: Antiproliferative activity against human SKBR3 cells after 72 hrs by XTT assay
Assay type: functional, cell-based
applied.conditions: SK-BR-3, 72 h
measurement.kind: IC50 (µM)

(1) COc1ccc(-c2cc3ccccc3nc2/C=C/C(=O)c2cccs2)cc1
(2) COc1ccc(C(=O)/C=C/c2nc3ccccc3cc2-c2ccc(OC)cc2)cc1
(3) COc1ccc(-c2cc3ccccc3nc2/C=C/C(=O)c2ccc(OC)cc2OC)cc1
(4) COc1ccc(-c2cc3ccccc3nc2/C=C/C(=O)c2ccc(Br)s2)cc1
(5) COc1ccc(-c2cc3ccccc3nc2/C=C/C(=O)c2c(OC)cccc2OC)cc1
Arrange the 5 molecules from largest to smallest IC50. Your answer should be the labels, listed in the requested order.
2, 5, 3, 1, 4
(2: 9.28 µM, 5: 3.83 µM, 3: 2.26 µM, 1: 0.8 µM, 4: 0.52 µM)

(1) COc1ccc(-c2cc3ccccc3nc2/C=C/C(=O)c2ccccc2)cc1
(2) COc1ccc(-c2cc3ccccc3nc2/C=C/C(=O)c2ccc(OC)c(OC)c2)cc1
Lower value of IC50 belongs to which: 1 or 2 ? # reply format: chosen label
1
(1: 0.7 µM, 2: 3.26 µM)

(P) COc1ccc(-c2cc3ccccc3nc2/C=C/C(=O)c2ccco2)cc1
(Q) COc1ccc(-c2cc3ccccc3nc2/C=C/C(=O)c2ccc(O)cc2)cc1
Lower value of IC50 belongs to which: P or Q ? # reply format: chosen label
P
(P: 0.64 µM, Q: 3.88 µM)

(I) COc1ccc(-c2cc3ccccc3nc2/C=C/C(=O)c2ccc([N+](=O)[O-])cc2)cc1
(II) COc1ccc(-c2cc3ccccc3nc2/C=C/C(=O)c2ccc(N)cc2)cc1
(III) COc1ccc(-c2cc3ccccc3nc2/C=C/C(=O)c2ccccn2)cc1
Put the molecules in ascending order of IC50. Your answer should be the labels, listed in the requested order.
III, I, II
(III: 0.37 µM, I: 0.59 µM, II: 8.56 µM)

(P) COc1ccc(-c2cc3ccccc3nc2/C=C/C(=O)c2ccc(F)cc2)cc1
(Q) COc1ccc(-c2cc3ccccc3nc2/C=C/C(=O)c2cc(OC)cc(OC)c2)cc1
(R) COc1ccc(-c2cc3ccccc3nc2/C=C/C(=O)c2c[nH]c3ccccc23)cc1
(S) CC[C@@]1(O)C(=O)OCc2c1cc1n(c2=O)Cc2cc3c(CN(C)C)c(O)ccc3nc2-1
Task field, ranking: reported IC50, descending order. Your answer should be the labels, listed in the requested order.
S, R, P, Q

These data points were gathered from ChEMBL document CHEMBL2311509.
